B1: Twister Ribozyme (parent)
chain: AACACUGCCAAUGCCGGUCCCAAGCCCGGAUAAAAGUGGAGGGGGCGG

variants of: B1; assay: self-cleavage, relative activity (ratio to wild type); higher = more cleavage; co-transcriptional

>  <Mutation code>
C5G G29C

>  <self-cleavage>
0.306

$$$$
>  <Mutation code>
A4C U31G

>  <self-cleavage>
0.177

$$$$
>  <Mutation code>
A10G U12C

>  <self-cleavage>
0.847

$$$$
>  <Mutation code>
U12C G48C

>  <self-cleavage>
1.18

$$$$
>  <Mutation code>
A34G G36U

>  <self-cleavage>
0.105

$$$$
>  <Mutation code>
G29U G43U

>  <self-cleavage>
0.299

$$$$
>  <Mutation code>
C19A G44U

>  <self-cleavage>
0.679

$$$$
>  <Mutation code>
G17U A40G

>  <self-cleavage>
0.0578

$$$$
>  <Mutation code>
A4U G45A

>  <self-cleavage>
0.105

$$$$
>  <Mutation code>
C21G G47C

>  <self-cleavage>
0.0639

$$$$
>  <Mutation code>
G28C G44U

>  <self-cleavage>
0.738

$$$$
>  <Mutation code>
C14A A34C

>  <self-cleavage>
0.426

$$$$
>  <Mutation code>
G16A C19G

>  <self-cleavage>
0.172

$$$$
>  <Mutation code>
G13A U37A

>  <self-cleavage>
0.209

$$$$
>  <Mutation code>
C27G G48A

>  <self-cleavage>
0.102

$$$$
>  <Mutation code>
C9U G48A

>  <self-cleavage>
0.491

$$$$
>  <Mutation code>
U12C A33U

>  <self-cleavage>
1.01

$$$$
>  <Mutation code>
G29U G36A

>  <self-cleavage>
0.481

$$$$
>  <Mutation code>
G7A G39A

>  <self-cleavage>
0.171

$$$$
>  <Mutation code>
C19G A22U

>  <self-cleavage>
0.0871

$$$$
>  <Mutation code>
C5G G43U

>  <self-cleavage>
0.136

$$$$
>  <Mutation code>
G39C G43C

>  <self-cleavage>
0.0898

$$$$
>  <Mutation code>
C25A G48C

>  <self-cleavage>
0.137

$$$$
>  <Mutation code>
A4C G7A

>  <self-cleavage>
0.0506

$$$$
>  <Mutation code>
C5A G45C

>  <self-cleavage>
0.16

$$$$
>  <Mutation code>
A11G G45U

>  <self-cleavage>
0.567

$$$$
>  <Mutation code>
C19G C46U

>  <self-cleavage>
0.359

$$$$
>  <Mutation code>
U12A G29C

>  <self-cleavage>
0.949

$$$$
>  <Mutation code>
U31G G39C

>  <self-cleavage>
0.144

$$$$
>  <Mutation code>
A33C G42A

>  <self-cleavage>
0.177

$$$$
>  <Mutation code>
C20A G39A

>  <self-cleavage>
0.114

$$$$
>  <Mutation code>
G16A C25U

>  <self-cleavage>
0.852

$$$$
>  <Mutation code>
U12G

>  <self-cleavage>
0.946

$$$$
>  <Mutation code>
C5A U6A

>  <self-cleavage>
0.0843

$$$$
>  <Mutation code>
C3U G47C

>  <self-cleavage>
0.233

$$$$
>  <Mutation code>
C19U A30C

>  <self-cleavage>
0.591

$$$$
>  <Mutation code>
G16C G39C

>  <self-cleavage>
0.119

$$$$
>  <Mutation code>
A1U G39U

>  <self-cleavage>
0.0746

$$$$
>  <Mutation code>
U37C

>  <self-cleavage>
0.738

$$$$
>  <Mutation code>
A33C G47U

>  <self-cleavage>
0.865

$$$$
>  <Mutation code>
U18C G29C

>  <self-cleavage>
0.0613

$$$$
>  <Mutation code>
A1U G41U

>  <self-cleavage>
0.0585

$$$$
>  <Mutation code>
A2G G42U

>  <self-cleavage>
0.11

$$$$
>  <Mutation code>
C15G U31G

>  <self-cleavage>
0.153

$$$$
>  <Mutation code>
C21U A22C

>  <self-cleavage>
0.0923

$$$$
>  <Mutation code>
C8G C14A

>  <self-cleavage>
0.495

$$$$
>  <Mutation code>
C27A G28C

>  <self-cleavage>
0.323

$$$$
>  <Mutation code>
C9A A34G

>  <self-cleavage>
0.501

$$$$
>  <Mutation code>
C3A U31G

>  <self-cleavage>
0.121

$$$$
>  <Mutation code>
C5U G28C

>  <self-cleavage>
0.434

$$$$
>  <Mutation code>
U12G G44C

>  <self-cleavage>
0.681

$$$$
>  <Mutation code>
C5U A22U

>  <self-cleavage>
0.526

$$$$
>  <Mutation code>
U12G G24A

>  <self-cleavage>
0.177

$$$$
>  <Mutation code>
C25G C26G

>  <self-cleavage>
0.0826

$$$$
>  <Mutation code>
C14G C21U

>  <self-cleavage>
0.0834

$$$$
>  <Mutation code>
G7A A23U

>  <self-cleavage>
0.12

$$$$
>  <Mutation code>
A1C C3G

>  <self-cleavage>
0.161

$$$$
>  <Mutation code>
A4C C21G

>  <self-cleavage>
0.0577

$$$$
>  <Mutation code>
C26G U37A

>  <self-cleavage>
0.126

$$$$
>  <Mutation code>
C21G A22C

>  <self-cleavage>
0.0386

$$$$
>  <Mutation code>
C5G G28C

>  <self-cleavage>
0.212

$$$$
>  <Mutation code>
C19U G29C

>  <self-cleavage>
0.438

$$$$
>  <Mutation code>
G41C C46G

>  <self-cleavage>
0.286

$$$$
>  <Mutation code>
A1U G36C

>  <self-cleavage>
0.0449

$$$$
>  <Mutation code>
G16A A33C

>  <self-cleavage>
0.799

$$$$
>  <Mutation code>
A1U C9U

>  <self-cleavage>
0.0321

$$$$
>  <Mutation code>
G17C A33U

>  <self-cleavage>
0.0842

$$$$
>  <Mutation code>
C19U U37A

>  <self-cleavage>
0.406

$$$$
>  <Mutation code>
C27A G29C

>  <self-cleavage>
0.0808

$$$$
>  <Mutation code>
C5U G43A

>  <self-cleavage>
0.141

$$$$
>  <Mutation code>
C14U G16U

>  <self-cleavage>
0.778

$$$$
>  <Mutation code>
C8U G36C

>  <self-cleavage>
0.106

$$$$
>  <Mutation code>
C9A C25U

>  <self-cleavage>
0.185

$$$$
>  <Mutation code>
G13C A23C

>  <self-cleavage>
0.0801

$$$$
>  <Mutation code>
U6C G17A

>  <self-cleavage>
0.0938

$$$$
>  <Mutation code>
C25U G47C

>  <self-cleavage>
0.248

$$$$
>  <Mutation code>
C19G G45C

>  <self-cleavage>
0.231

$$$$
>  <Mutation code>
G16U G39U

>  <self-cleavage>
0.225

$$$$
